Each item that follows carries a reported TGI.
# System: SR leukemia
# assay procedure: NCI tumour cell line growth inhibition, 48 h

Example results:
- compound: "CC1C(=O)C23OC[C@@]1(C)C1(O)CC[C@@H](C)[C@]21CC3=O (stereo not given in full)"
  study target: "SR leukemia"
  TGI: "> 100 µM"
- compound: "CC(C)CNc1nc(N=[N+]=[N-])nc(NCC(C)C)n1"
  study target: "SR leukemia"
  TGI: "> 10 µM"
- compound: "Nn1c(N=Nc2c(O)[nH]c3ccccc23)n[nH]c1=S"
  study target: "SR leukemia"
  TGI: "> 100 µM"
- compound: "CN(C)/C=N/S(=O)(=O)c1nn2c(C=O)c(-c3ccc([N+](=O)[O-])cc3)nc2s1"
  study target: "SR leukemia"
  TGI: "> 43.3 µM"
- compound: "Cc1ccc(S(=O)(=O)NCCSS(=O)(=O)c2ccc(C)cc2)cc1"
  study target: "SR leukemia"
  TGI: "39 µM"

Prompt line: Return reported TGI; argument: Cc1sc(/N=C2/NC(=O)CS2)nc1-c1nc(/N=C2/NC(=O)CS2)sc1C
Response line: > 50 µM

Prompt line: Also CCOC(=O)CCC(NC(=O)c1ccc(Oc2nc3ccccc3nc2C(=O)OCC)cc1)C(=O)OCC (stereo not given) , if possible.
Response line: > 100 µM
